System: DMS114 SCLC cell line
Assay comment: In vitro cytotoxicity, low throughput MTS assay, DMS114
Type: cell-based
Condition: Homo sapiens, DMS-114, TP53 c.637C > T, concurrent hemizygous deletion, read-out: IC50 (nM), cell line sensitivity to volasertib
Reported property: IC50 (nM)
The response must be a number in nM with no trailing unit.

// returns reported IC50 for input CC[C@@H]1C(=O)N(C)c2cnc(Nc3ccc(C(=O)N[C@H]4CC[C@H](N5CCN(CC6CC6)CC5)CC4)cc3OC)nc2N1C(C)C
0.092
